Source listed as ChEMBL document CHEMBL4689842.

# System: HEK-293T
# Test details: Multiplex assay against HEK293T
# Type: toxicity, cell-based
# Assay setup: human, 48 h, 10 µM, compound concentration 10 uM, replicate 2
// reported Population Mitochondria Different-Phenotype (%) per item
Quantity measured: Population Mitochondria Different-Phenotype (%)

{"Compound": "COc1cc(-n2cnc3cc(-c4ccc(Cl)cc4)sc3c2=O)ccc1OCCN1CCCC1", "Test value": 73}
{"Compound": "Cc1csc2c(N[C@@H](C)CN3CCN(S(=O)(=O)c4ccc(Cl)c(Cl)c4)CC3)ncnc12", "Test value": 78}
{"Compound": "CCn1c(=O)c(-c2ccc(Cl)cc2Cl)cc2cnc(Nc3ccc(N4CCNCC4)c(F)c3)nc21", "Test value": 92}
{"Compound": "C=CC(=O)Nc1cccc(C(=O)Nc2ccc(Nc3cc(-c4[nH]c(SC)nc4C)ccn3)cc2)c1", "Test value": 14}
{"Compound": "CNCc1ccccc1-c1csc([C@H](C)Nc2nc(C)nc3cc(OC)c(OC)cc23)c1", "Test value": 87}
{"Compound": "CC[C@H](C)C(=O)O[C@H]1C[C@@H](C)C=C2C=C[C@H](C)[C@H](CC[C@@H]3C[C@@H](O)CC(=O)O3)[C@H]21", "Test value": 5}
{"Compound": "COc1ncc(-c2ccc3nccc(-c4ccnnc4)c3c2)cc1NS(=O)(=O)c1ccc(F)cc1F", "Test value": 49}
{"Compound": "Cc1[nH]c(/C=C2\\C(=O)Nc3ccc(S(=O)(=O)N(C)c4cccc(Cl)c4)cc32)c(C)c1C(=O)N1CCN(C)CC1", "Test value": 68}
{"Compound": "O=C1NCN(c2ccccc2)C12CCN(CCCOc1ccc(F)cc1)CC2 [SPIRAMIDE]", "Test value": 29}
{"Compound": "CN1CCCC(n2nc(Cc3ccc(Cl)cc3)c3ccccc3c2=O)CC1.Cl (configuration not stated) [AZELASTINE HYDROCHLORIDE]", "Test value": 99}
{"Compound": "CNc1nc(NCc2ccc(NS(C)(=O)=O)cc2Cl)cc(-c2ccccn2)n1", "Test value": 76}
{"Compound": "CC(C)(O)CNc1ncc(-c2ccnc(Nc3ccnc(Cl)c3)n2)c(CC2CC2)n1", "Test value": 71}
{"Compound": "NC(=O)Nc1cc(-c2cccc(F)c2)sc1C(=O)N[C@H]1CCCNC1", "Test value": 66}
{"Compound": "CN1CCN(CCOc2cc(OC3CCOCC3)c3c(Nc4c(Cl)ccc5c4OCO5)ncnc3c2)CC1", "Test value": 98}
{"Compound": "COc1cc2nccc(Oc3ccc(NC(=O)Nc4cc(C)on4)c(Cl)c3)c2cc1OC.O", "Test value": 91}
{"Compound": "CC(C)NCC(O)COc1ccc(CCOCC2CC2)cc1.Cl (configuration not stated) [BETAXOLOL HYDROCHLORIDE]", "Test value": 63}
{"Compound": "CN(C)C(=O)N[C@H]1CC[C@H](CCN2CCN(c3cccc(Cl)c3Cl)CC2)CC1.Cl [CARIPRAZINE HYDROCHLORIDE]", "Test value": 95}
